System: OVCAR-5 ovarian
TEST NAME: NCI-60 one-dose screen, 48 h (100 = growth as untreated, 0 = no growth, -100 = all killed)
PROTOCOL CONDITIONS: 10 µM unless noted
Description: Growth inhibition of the OVCAR-5 human tumor cell line is measured as a screen for anti-cancer activity. Cells are grown in 96 well plates and exposed to the test compound for 48 hours. Compounds are tested at a single concentration, which is 10^-5 M for most compounds. The reported endpoint is percent growth (GI% or GIPRCNT), where numbers from 0 - 100% represent growth inhibition, and numbers from -100% - 0 represent cell death. For example, a value of 40 represents 60% growth inhibition. […]
About 83,000 compounds went through this panel and 20% of them were active in at least one assay; those are over-represented in the sample as a whole.

COMPOUND	UNIT SYMBOL	growth
NC(=O)/C=C/C(=O)c1c(Cl)cccc1Cl	%	-99.6
C[N+](C)=c1ccc2nc3c(cc(NCCCNc4cc5oc6cc(=[N+](C)C)ccc-6nc5c5ccccc45)c4ccccc43)oc-2c1	%	68.5
O=C(/C=C\c1ccccc1)N1c2ccccc2CC1c1c[nH]c2ccccc12 (stereo unspecified)	%	76.8
Nc1ccc(SSc2ccc(N)cc2)cc1	%	101
CCOC(=O)/C=C/c1ccc([N+](=O)[O-])o1	%	75
N#CSCc1ccc(Cl)c(CSC#N)c1	%	68.7

---

System: SR leukemia
TEST NAME: NCI-60 one-dose screen, 48 h (100 = growth as untreated, 0 = no growth, -100 = all killed)
PROTOCOL CONDITIONS: 10 µM unless noted
The panel holds about 83,000 compounds, 20% with a hit somewhere; the sample as a whole holds those more often. The source made the active and inactive calls. Rule for the calls: active = growth percent below 10; inactive = the rest. Where a SMILES comes first, the peptide text is derived from it. The star is where a group is joined. Trt = c1ccc(C(c2ccccc2)(c2ccccc2)*)cc1; Cbz = O=C(OCc1ccccc1)*
Form field: growth (one value per entry).

MOLECULE	growth
CCOC(=O)/C(=C\c1ccc(-c2ccccc2)cc1)C(C)=O	95.9% (inactive)
O=C1C=CC(=O)N1C1c2ccccc2-c2ccccc21	-26.9% (active)
C[N+](C)=c1ccc2nc3c(cc(NCCCNc4cc5oc6cc(=[N+](C)C)ccc-6nc5c5ccccc45)c4ccccc43)oc-2c1	6.05% (active)
Cc1cc(C(C)(CC(C)C)c2ccc(O)c(C)c2)ccc1O	94.6% (inactive)
COc1ccc2nc3cc(Cl)ccc3c(NCCNc3c4ccc(Cl)cc4nc4ccc(OC)cc34)c2c1	-29.8% (active)
COc1ccccc1/C=C\C(=O)c1ccccc1	15.3% (inactive)
CCC(CC)COC(=O)c1ccc(O)c(O)c1	18.6% (inactive)
CNC(=O)N/N=C/c1ccc([N+](=O)[O-])o1	82.8% (inactive)
N[C@H](C(=O)O)[C@@H]1CC(Cl)=NO1	21.2% [20 µM] (inactive)
CN(C)C(=O)c1ccc(SC(=S)NCc2ccccc2)cc1	-36.6% [100 µM] (active)
COC(=O)C(CSC(c1ccccc1)(c1ccccc1)c1ccccc1)NC(=O)C(CC(N)=O)NC(=O)OCc1ccccc1 (stereo not drawn) (Cbz-Asn-Cys(Trt)-OMe; configuration not given here)	-43.7% (active)
CCCCCC(CCCCC)C(=O)O	99.7% (inactive)
NC(N)=N/N=C/c1ccc([N+](=O)[O-])o1	98.3% (inactive)
CC(=O)C(=Cc1ccc(C=C(C(C)=O)C(C)=O)cc1)C(C)=O	6.26% (active)
CN(C)c1ccc(/C=N/N=C(\C#N)[S][Sn]([Cl])([c]2ccccc2)[c]2ccccc2)cc1	5.61% (active)
CC1OC2CC(=O)OC2C2=C1C(=O)c1c(O)cccc1C2=O (configuration not stated)	-30% (active)
S=C(NCCNC(=S)[S][Sn]([c]1ccccc1)([c]1ccccc1)[c]1ccccc1)[S][Sn]([c]1ccccc1)([c]1ccccc1)[c]1ccccc1	0.639% (active)
CCC1OC(OC)C=CC1=O (configuration not stated)	81.5% (inactive)
Cc1ccc(N=C=C(c2ccccc2)c2ccccc2)cc1	22.9% (inactive)
O=C(/C=C/C=C/c1ccccc1)c1ccco1	16.7% (inactive)
O=C(CC1(O)C(=O)Nc2c(Cl)ccc(Cl)c21)c1ccc(Cl)cc1Cl (configuration not stated)	86.9% (inactive)
CCC(c1cccc(O)c1)C(CC)c1cccc(O)c1 (configuration not stated)	16.5% (inactive)
N#CC1C(=O)SC2c3ccccc3C(=O)c3ccccc3C12 (configuration not stated)	90.1% (inactive)
CC(C)c1ccc2nc3ccc(C(=O)NCCN4CCN(c5ccccc5)CC4)cn3c(=O)c2c1	51.7% (inactive)
COc1cc(NS(C)(=O)=O)ccc1Nc1c2ccccc2nc2ccccc12	19.4% [2.5 µM] (inactive)
O=C(Nc1c(Cl)cccc1Cl)Oc1cccc2cccnc12	5.64% [100 µM] (active)
COC(=O)c1nc(=S)[nH]c(C(=O)OC)c1C(=O)c1ccc2ccccc2c1	93.5% (inactive)
CN(C)c1ccc(N=Nc2cccc3ccccc23)cc1	111% (inactive)
Oc1c(Br)cc(Cl)cc1C(c1cc(Cl)cc(Br)c1O)C(Cl)(Cl)Cl	28.5% (inactive)
C[n+]1c(/C=C/c2ccc([N+](=O)[O-])cc2)ccc2ccccc21	82.7% (inactive)
CCN(CC)CC(C)(C)C(=O)/C=C/c1ccc(Cl)c(Cl)c1	10.3% (inactive)
Cc1ccnc(NC(c2ccccc2)c2ccc3cccnc3c2O)c1 (configuration not stated)	10% (inactive)
O=C(O)c1ccc2c3c(ncnc13)-c1ccccc1C2=O	98.4% (inactive)
CCC(=O)Sc1ccccc1C(=O)Nc1ccc(Cl)cc1	26.3% (inactive)
Nc1nc(N)c2c(ccc3c2ccn3Cc2cccc([N+](=O)[O-])c2)n1	110% (inactive)
CNc1ccc2c(c1)c1ccccc1n2C	93.9% (inactive)
CC1OC(OC2C(OC3CCC4(C)C(CCC5(C)C4CC=C4C6CC(C)(C)CCC6(CO)C(O)CC45C)C3(C)C)OC(C(=O)O)C(OC3OC(COC4OC(CO)C(O)C(O)C4O)C(O)C(O)C3O)C2O)C(O)C(O)C1O (configuration not stated)	-44.2% (active)
NC(=S)N/N=C/c1ccc(Cl)s1	95.6% (inactive)
O=C(/C=C\c1cc(Br)ccc1O)/C=C/c1cc(Br)ccc1O	1.17% (active)
CCCCCCCCCCCCCCCCOP(=O)([O-])OCC[N+](C)(C)C	15% (inactive)
OC(CNc1ccnc2cc(Cl)ccc12)CNc1ccnc2cc(Cl)ccc12	2.51% (active)
COC(=O)[C@@]12OC[C@]34[C@H]([C@@H](O)[C@@H]1O)[C@@]1(C)[C@H](O)C(=O)C=C(C)[C@@H]1C[C@H]3OC(=O)C(OC(C)=O)[C@@H]24 (some centres not stated)	-43% (active)
